FYI, the data here is from paper PMC6222669.

Catalogue of inhibition at 15 min, 1 µM values
Target: CYP3A4 (Homo sapiens)
Assay: Metabolism dependent inhibition of CYP3A4 (testosterone 6β-hydroxylation, preincubation with NADPH generating system)
Conditions: human, pH 7.4, probe testosterone (200 µM; 6β-hydroxylation)
reportedMetric: inhibition at 15 min, 1 µM (%)

[[record]]
compoundstructurestring = "O=C1C[C@@H](c2ccccc2)Oc2cc(O)cc(O)c21"
reportedmetric = "inhibition at 15 min, 1 µM"
val = 50

[[record]]
compoundstructurestring = "COc1ccc(-c2cc(=O)c3c(O)cc(O)cc3o2)cc1"
reportedmetric = "inhibition at 15 min, 1 µM"
val = 95


====

Molecular target: CYP3A4 (Homo sapiens, UniProt P08684)
Sequence (P08684 2-503 limits assumed): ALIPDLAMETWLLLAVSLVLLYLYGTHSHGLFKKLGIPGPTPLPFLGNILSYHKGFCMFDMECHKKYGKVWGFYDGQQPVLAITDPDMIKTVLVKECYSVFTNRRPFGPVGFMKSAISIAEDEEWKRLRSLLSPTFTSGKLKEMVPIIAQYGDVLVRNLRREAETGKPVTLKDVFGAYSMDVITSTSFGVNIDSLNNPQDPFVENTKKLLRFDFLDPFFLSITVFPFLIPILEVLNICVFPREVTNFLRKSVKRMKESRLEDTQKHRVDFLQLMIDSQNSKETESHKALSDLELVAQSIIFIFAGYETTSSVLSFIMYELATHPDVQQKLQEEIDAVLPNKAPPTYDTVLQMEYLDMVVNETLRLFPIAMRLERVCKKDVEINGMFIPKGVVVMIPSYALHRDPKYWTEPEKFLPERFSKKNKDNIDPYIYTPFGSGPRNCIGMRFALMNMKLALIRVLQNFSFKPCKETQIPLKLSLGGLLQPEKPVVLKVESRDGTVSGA
Assay: Metabolism dependent inhibition of CYP3A4 (testosterone 6β-hydroxylation, preincubation with NADPH generating system)
Details: human, pH 7.4, probe testosterone (200 µM; 6β-hydroxylation)
Catalogue of activity at 15 min, 1 µM values
reportedMetric: activity at 15 min, 1 µM (%)

[[record]]
compound = "COc1cc(-c2oc3cc(O)cc(O)c3c(=O)c2O)ccc1O"
reportedmetric = "activity at 15 min, 1 µM"
val = 73

[[record]]
compound = "O=c1c(-c2ccc(O)cc2)coc2cc(O)cc(O)c12"
reportedmetric = "activity at 15 min, 1 µM"
val = 72

[[record]]
compound = "COc1cc(O)c2c(=O)c(O)c(-c3ccc(O)c(O)c3)oc2c1"
reportedmetric = "activity at 15 min, 1 µM"
val = 117

[[record]]
compound = "O=c1cc(-c2ccccc2)oc2ccccc12"
reportedmetric = "activity at 15 min, 1 µM"
val = 81

[[record]]
compound = "O=c1c(O)c(-c2ccccc2)oc2cc(O)ccc12 [3,7-dihydroxyflav., 3,7-dihydroxyflavon]"
reportedmetric = "activity at 15 min, 1 µM"
val = 91

[[record]]
compound = "O=c1c(O)c(-c2ccc(O)c(O)c2)oc2cc(O)cc(O)c12"
reportedmetric = "activity at 15 min, 1 µM"
val = 126

[[record]]
compound = "COc1cc(O)c2c(c1)OC(c1ccccc1)CC2=O (stereo not drawn)"
reportedmetric = "activity at 15 min, 1 µM"
val = 83

[[record]]
compound = "COc1cc(OC)c2c(=O)cc(-c3ccccc3)oc2c1"
reportedmetric = "activity at 15 min, 1 µM"
val = 61

[[record]]
compound = "COc1ccc(-c2cc(=O)c3c(O)cc(O)cc3o2)cc1"
reportedmetric = "activity at 15 min, 1 µM"
val = 5


====

Catalogue of activity at 15 min, 1 µM values
Biological target: CYP3A4 (Homo sapiens, UniProt P08684)
Test: Metabolism dependent inhibition of CYP3A4 (testosterone 6β-hydroxylation, preincubation with NADPH generating system)
Conditions: human, pH 7.4, probe testosterone (200 µM; 6β-hydroxylation)
reportedMetric: activity at 15 min, 1 µM (%)

[[record]]
compound = "O=c1cc(-c2ccccc2)oc2cc(O)ccc12 [7-hydroxyflavone]"
val = 78

[[record]]
compound = "O=C1C[C@@H](c2ccccc2)Oc2cc(O)cc(O)c21 [Pinocembrin]"
val = 50

[[record]]
compound = "O=c1c(O)c(-c2ccccc2)oc2cc(O)cc(O)c12 [Galangin]"
val = 48

[[record]]
compound = "O=C1C[C@@H](c2ccc(O)cc2)Oc2cc(O)cc(O)c21 [Naringenin]"
val = 65

[[record]]
compound = "COc1ccc(-c2oc3cc(O)cc(O)c3c(=O)c2O)cc1O [Tamarixetin]"
val = 195

[[record]]
compound = "COc1cc(O)c2c(=O)c(-c3ccc(O)cc3)coc2c1 [Prunetin]"
val = 74

[[record]]
compound = "COc1cc(O)c2c(=O)cc(-c3ccccc3)oc2c1 [Techtocrysin]"
val = 102

[[record]]
compound = "O=c1c(O)c(-c2ccc(O)cc2)oc2cc(O)cc(O)c12 [Kaempferol]"
val = 101

[[record]]
compound = "O=c1cc(-c2ccccc2)oc2ccc(O)cc12 [6-hydroxyflavone]"
val = 83

[[record]]
compound = "O=c1c(O)c(-c2ccc(O)cc2O)oc2cc(O)cc(O)c12 [Morin]"
val = 122


====

Catalogue of activity at 15 min, 1 µM values
Biological target: CYP3A4 (Homo sapiens)
Test: Metabolism dependent inhibition of CYP3A4 (testosterone 6β-hydroxylation, preincubation with NADPH generating system)
Conditions: human, pH 7.4, probe testosterone (200 µM; 6β-hydroxylation)
reportedMetric: activity at 15 min, 1 µM (%)

[[record]]
compound = "O=c1cc(-c2ccc(O)c(O)c2)oc2cc(O)cc(O)c12"
valueunit = "%"
val = 112

[[record]]
compound = "O=c1c(O)c(-c2cc(O)c(O)c(O)c2)oc2cc(O)cc(O)c12"
valueunit = "%"
val = 133

[[record]]
compound = "O=c1c(O)c(-c2ccccc2)oc2ccc(O)cc12 [3,6-dihydroxyflav., 3,6-dihydroxyflavon]"
valueunit = "%"
val = 100


====

Target: UniProtKB P08684
Assay: in vitro
Settings: pH 7.4
reportedMetric: inhibition at 15 min, 1 µM (%)

[[record]]
compoundstructurestring = "O=c1cc(-c2ccc(O)cc2)oc2cc(O)cc(O)c12"
reportedmetric = "inhibition at 15 min, 1 µM"
valueunit = "%"
val = 76


====

Molecular target: CYP3A4 (Homo sapiens)
Assay: in vitro
Settings: pH 7.4
reportedMetric: activity at 15 min, 1 µM (%)

[[record]]
compoundstructurestring = "COc1ccc([C@@H]2CC(=O)c3c(O)cc(O)cc3O2)cc1O"
val = 49

[[record]]
compoundstructurestring = "O=c1cc(-c2ccccc2)oc2cc(O)cc(O)c12"
val = 17

[[record]]
compoundstructurestring = "O=c1cc(-c2ccc(O)cc2)oc2cc(O)cc(O)c12"
val = 24

[[record]]
compoundstructurestring = "COc1ccc(-c2cc(=O)c3c(OC)c(OC)c(OC)c(OC)c3o2)cc1"
val = 42

[[record]]
compoundstructurestring = "COc1cc(O)c2c(c1)O[C@H](c1ccc(O)cc1)CC2=O"
val = 94

